- PROTOCOL_NOTES: Water solubility (phase solubility experiments) with and without water-soluble vitamin
- Format: physicochemical
- CONDITION_INFO: water with 10% ascorbic acid, pH 2; pH2, in the presence of 10% (about 0.6M) ascorbic acid; read-out: water solubility (free base equivalent)
MEASURE: solubility

Prompt: Given the entry `CN(C(=O)CCCOc1ccc2c(c1)CN1CC(=O)NC1=N2)C1CCCCC1` , report its measured solubility.
Completion: ~420 µg/mL

====

- PROTOCOL_NOTES: Water solubility (phase solubility experiments) with and without water-soluble vitamin
- Type: physicochemical
- CONDITION_INFO: pH 2; pH2, absence of water-soluble vitamin; read-out: water solubility (free base equivalent)
- Text: The present inventors have discovered that the compounds of Formula (I) form water-soluble complexes with water-soluble vitamins such as ascorbic acid, nicotinamide thiamine and pyridoxine. The phenomenon of complex formation can be confirmed by phase solubility experiments (FIGS. 1 and 2), and by spectral shifts and changes in electrochemical responses of the vitamins in the presence of these compounds (FIGS. 4a and 4b). […]
MEASURE: solubility

Prompt: solubility lookup needed for `CN(C(=O)CCCOc1ccc2c(c1)CN1CC(=O)NC1=N2)C1CCCCC1` , thanks.
Completion: ~120 µg/mL

These entries and their values trace back to patent US4837239A.
